// data source = a melting point compilation (Tetko et al.; mined from patent text by program, amines drawn as free bases though some values may be those of a salt)

propertyLabel: melting point

- compound: "CCCSc1nc(C)c(CO)n1-c1ccccc1Cl"
  melting point: "98 to 101 °C"
- compound: "CC1=C(CN2CC(C(=O)O)C2)CCc2cc(OCc3ccc(C(F)(F)F)cc3C(F)(F)F)ccc21"
  melting point: "155 to 165 °C"
- compound: "NC(=O)C=Cc1cccc(NC(=O)c2cc(-c3cccc(F)c3)ccc2F)c1"
  melting point: "216 to 218 °C"
- compound: "c1csc(C2NCCNCc3ccccc32)c1 (stereo not given)"
  melting point: "148 °C"
- compound: "CC(=O)n1cc(C2=C(c3cn(C)c4ccccc34)C(=O)NC2=O)c2ccccc21"
  melting point: "252 to 253 °C"

Exercise: If you can, please state the reported melting point value of CC1(C(=O)Nc2cnc(Cl)c(Cl)c2)CC1 .
Key: 115 to 117 °C

Exercise: // repeat for Cc1cc(=O)[nH]c2nc(CCCCCN3CCN(c4cccc(Cl)c4Cl)CC3)ccc12 and report
Key: 195 to 196 °C

Exercise: // repeat for CC(C)Nc1cc(Cl)nnc1NN and report
Key: 132 to 135 °C

Exercise: // repeat for O=P1(c2ccccc2)c2ccccc2CN1c1ccc(Br)cc1 (stereo not given) and report
Key: 200 to 202 °C

Exercise: // repeat for CCCOc1ccc(S(=O)(=O)N2CCNCC2)cc1-c1nc2c(CCC)nn(C)c2c(=O)[nH]1 and report
Key: 185 to 186 °C
